molecular target: CDK2/Cyclin E1 (Homo sapiens, UniProt P24941); test: CDK2/Cyclin E1 Biochemical Assay (TR-FRET), 0.060 mM ATP; conditions: 0.15 μM Rb (Ser780)-biotin substrate, pH7.0, 60 min preincubation, 120 min reaction, room temperature
measured-endpoint: IC50
Don't forget the unit after the value.

Illustrative cases are given below, each with its answer.
* O=C(NC1CCCC1)O[C@H]1CC[C@@H](c2cc(Nc3ccc4c(c3)CS(=O)(=O)N4)n[nH]2)C1 (single isomer, unassigned) [Example 381b] | 0.9 nM
* CC(C)NC(=O)O[C@H]1CC[C@@H](c2cc(Nc3c(F)cc4c(c3O)CNS4(=O)=O)n[nH]2)C1 (relative stereo) | 601 nM

Switching to the query record.
Need IC50 of CN1c2ccc(Nc3cc([C@@H]4CC[C@H](OC(=O)NC5(C)CCOC5)C4)[nH]n3)c(F)c2CS1(=O)=O (single isomer, unassigned) [Example 349b] , thanks.
1.2 nM

---

IC50 by entry:
Biological target: CDK2/Cyclin E1 (Homo sapiens)
Test: CDK2/Cyclin E1 Biochemical Assay (TR-FRET), 0.060 mM ATP
Settings: 0.15 μM Rb (Ser780)-biotin substrate, pH7.0, 60 min preincubation, 120 min reaction, room temperature
Experimental: CDK2/Cyclin E1 and CDK1/Cyclin B1 Biochemical Assays Compounds disclosed herein were tested for inhibition of CDK2/Cyclin E1 or CDK1/Cyclin B1 kinase in an assay based on the time-resolved fluorescence-resonance energy transfer (TR-FRET) methodology. […] Plates were incubated at room temperature for 60 minutes, and the TR-FRET signals (ex337 nm, em665 nm/620 nm) were recorded on a PHERAstar FSX plate reader (BMG Labtech). […]
Write the value in nM as a bare number.

* CC1(NC(=O)O[C@H]2CC[C@@H](c3cc(Nc4ccc5c(c4F)CS(=O)(=O)N5CCO)n[nH]3)C2)CCOC1 (relative stereo) [Example 393] | 1.9
* CC(C)NC(=O)O[C@H]1CC[C@@H](c2cc(Nc3ccc4c(c3F)CN(C3CCCC3O)S4(=O)=O)n[nH]2)C1 (relative stereo) [Example 109] | 11
* CC(C)NC(=O)O[C@H]1CC[C@@H](c2cc(Nc3ccc4c(c3)S(=O)(=O)NC4(C)C)n[nH]2)C1 (relative stereo) [Example 4] | 8.6
* CN1c2ccc(Nc3cc([C@@H]4CC[C@H](OC(=O)NC(C)(C)CO)C4)[nH]n3)cc2CS1(=O)=O (single isomer, unassigned) [Example 325b] | 2.3
* CN1c2ccc(Nc3cc([C@@H]4CC[C@H](OC(=O)NC5(C)CCOC5)C4)[nH]n3)c(F)c2CS1(=O)=O (single isomer, unassigned) [Example 349d] | 1.4

Reported IC50 for CC(C)NC(=O)O[C@H]1CC[C@@H](c2cc(Nc3cnc4c(c3)CN(C)S4(=O)=O)n[nH]2)C1 (relative stereo) [Example 32] : what is it?
21

---

molecular target: CDK2/Cyclin E1 (Homo sapiens, UniProt P24941); experiment: CDK2/Cyclin E1 Biochemical Assay (TR-FRET), 0.060 mM ATP; settings: 0.15 μM Rb (Ser780)-biotin substrate, pH7.0, 60 min preincubation, 120 min reaction, room temperature
Recorded log10 of IC50 by entry
Note: values are log10 of IC50 expressed in nM.

Record excerpt, results attached:
- CC(C)NC(=O)O[C@H]1CC[C@@H](c2cc(Nc3ccc4c(c3F)S(=O)(=O)N(C(C)C)C4)n[nH]2)C1 (relative stereo) [Example 193]: 1.20
- O=C(NC1(CO)CC1)O[C@H]1CC[C@@H](c2cc(Nc3ccc4c(c3F)CNS4(=O)=O)n[nH]2)C1 (relative stereo) [Example 333]: 1.00
- CN1c2ccc(Nc3cc([C@@H]4CC[C@H](OC(=O)NC5CCC5)C4)[nH]n3)cc2CS1(=O)=O (racemic) [Example 227]: 0.70
- CN1c2ccc(Nc3cc([C@@H]4CC[C@H](OC(=O)NC5(CO)CC5)C4)[nH]n3)cc2CS1(=O)=O (relative stereo) [Example 342]: 0.69
- CC(C)NC(=O)O[C@H]1CC[C@@H](c2cc(Nc3ccc4c(c3F)CN(C3CCNC3=O)S4(=O)=O)n[nH]2)C1 (relative stereo) [Example 79]: 0.92

// below: log10 of IC50 requested for another compound
Could you tell me which log10 of IC50 is on file for CC1NS(=O)(=O)c2ccc(Nc3cc([C@@H]4CC[C@H](OC(=O)NC5(C)CC5)C4)[nH]n3)cc21 (single isomer, unassigned) [Example 322d] ?
-0.15

---

molecular target: CDK1/Cyclin B1 (Homo sapiens, UniProt P06493); assay: CDK1/Cyclin B1 Biochemical Assay (TR-FRET), 1 mM ATP; conditions: 0.15 μM Rb (Ser780)-biotin substrate, pH7.0, 60 min preincubation, 90 min reaction, room temperature
Sequence (P06493 whole entry): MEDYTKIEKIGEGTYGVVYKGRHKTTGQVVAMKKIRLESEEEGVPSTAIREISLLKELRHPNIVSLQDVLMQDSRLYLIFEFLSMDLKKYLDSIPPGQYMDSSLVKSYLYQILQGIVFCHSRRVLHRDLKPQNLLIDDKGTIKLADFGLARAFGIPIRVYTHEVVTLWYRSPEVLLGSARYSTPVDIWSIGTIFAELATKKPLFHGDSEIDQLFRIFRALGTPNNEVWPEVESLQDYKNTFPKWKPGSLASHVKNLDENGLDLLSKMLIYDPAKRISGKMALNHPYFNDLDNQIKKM
Sequence (P14635 whole entry partner): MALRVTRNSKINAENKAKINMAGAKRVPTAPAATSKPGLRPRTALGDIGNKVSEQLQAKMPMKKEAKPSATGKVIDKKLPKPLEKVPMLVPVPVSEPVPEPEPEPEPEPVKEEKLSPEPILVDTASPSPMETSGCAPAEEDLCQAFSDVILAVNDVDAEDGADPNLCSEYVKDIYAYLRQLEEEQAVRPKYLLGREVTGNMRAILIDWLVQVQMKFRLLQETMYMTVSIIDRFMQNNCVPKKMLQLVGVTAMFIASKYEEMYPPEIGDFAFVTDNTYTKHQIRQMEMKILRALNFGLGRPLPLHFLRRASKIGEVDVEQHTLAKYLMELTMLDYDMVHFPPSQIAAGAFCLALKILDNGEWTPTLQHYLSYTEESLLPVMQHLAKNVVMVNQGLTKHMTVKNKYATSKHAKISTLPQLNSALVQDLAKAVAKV
measured-endpoint: IC50

• CCCNC(=O)O[C@@H]1CC[C@H](c2cc(Nc3ccc4c(c3F)CS(=O)(=O)N4CC(C)(C)O)n[nH]2)C1 [Example 433a] = 3.1 µM

Any idea what IC50 was measured for CN1c2ccc(Nc3cc([C@@H]4CC[C@H](OC(=O)NCC(C)(C)O)C4)[nH]n3)c(F)c2CS1(=O)=O (single isomer, unassigned) [Example 330a] ?
> 10 µM

Please report the recorded IC50 for CC(C)(CO)NC(=O)O[C@H]1CC[C@@H](c2cc(Nc3ccc4c(c3F)CS(=O)(=O)N4C3CC3)n[nH]2)C1 (single isomer, unassigned) [Example 363b] .
0.863 µM

---

molecular target: CDK1/Cyclin B1 (Homo sapiens); test: CDK1/Cyclin B1 Biochemical Assay (TR-FRET), 0.015 mM ATP; settings: 0.15 μM Rb (Ser780)-biotin substrate, pH7.0, 60 min preincubation, 120 min reaction, room temperature
measured-endpoint: pIC50
Entry type: numeric. Quantity: pIC50, the -log10 of concentration in molar units.

Use the examples below as a reference point.
- COCC1(NC(=O)O[C@H]2CC[C@@H](c3cc(Nc4ccc5c(c4F)CN(C)S5(=O)=O)n[nH]3)C2)CC1 (relative stereo): 6.20
- CC[C@H](C)NC(=O)O[C@H]1CC[C@@H](c2cc(Nc3ccc4c(c3F)CS(=O)(=O)N4C3COC3)n[nH]2)C1 (single isomer, unassigned) [Example 261a]: 6.92
- O=C(NC1(CO)CC1)O[C@H]1CC[C@@H](c2cc(Nc3ccc4c(c3F)CN(C3CC3)S4(=O)=O)n[nH]2)C1 (relative stereo): 6.45
- CN1c2ccc(Nc3cc([C@@H]4CC[C@H](OC(=O)NCC(C)(C)O)C4)[nH]n3)cc2CS1(=O)=O (relative stereo): 6.82
- CC(C)NC(=O)O[C@H]1CC[C@@H](c2cc(Nc3cc(F)c4c(c3)CS(=O)(=O)N4)n[nH]2)C1 (relative stereo): 7.37
- CN1Cc2c(ccc(Nc3cc([C@@H]4CC[C@H](OC(=O)NC5(C)COC5)C4)[nH]n3)c2F)S1(=O)=O (single isomer, unassigned) [Example 352b]: 6.19
- COc1c(Nc2cc([C@@H]3CC[C@H](OC(=O)NC(C)C)C3)[nH]n2)ccc2c1C(C)(C)NS2(=O)=O (relative stereo): 5.00
- CC1NS(=O)(=O)c2ccc(Nc3cc([C@@H]4CC[C@H](OC(=O)NC5(C)CC5)C4)[nH]n3)cc21 (single isomer, unassigned) [Example 322c]: 7.54
- CC1(NC(=O)O[C@H]2CC[C@@H](c3cc(Nc4ccc5c(c4F)CNS5(=O)=O)n[nH]3)C2)CC1 (single isomer, unassigned) [Example 140a]: 7.01
- COCN1c2c(F)cc(Nc3cc([C@@H]4CC[C@H](OC(=O)NC(C)C)C4)[nH]n3)cc2CS1(=O)=O (relative stereo): 6.85

Please give the measured pIC50 for this compound: COCC(C)(C)NC(=O)O[C@H]1CC[C@@H](c2cc(Nc3ccc4c(c3F)CS(=O)(=O)N4CC(F)(F)F)n[nH]2)C1 (relative stereo)
7.17

So what does the record say about pIC50 for CC(C)NC(=O)O[C@H]1CC[C@@H](c2cc(Nc3cc(Cl)c4c(c3)S(=O)(=O)NC4)n[nH]2)C1 (relative stereo) ?
8.39

Requested read-out: pIC50. Entry: CCCNC(=O)O[C@H]1CC[C@@H](c2cc(Nc3ccc4c(c3)NS(=O)(=O)C4)n[nH]2)C1 (relative stereo)
7.24

Entry CN1c2ccc(Nc3cc([C@@H]4CC[C@H](OC(=O)NC5(C)CCOC5)C4)[nH]n3)c(F)c2CS1(=O)=O (single isomer, unassigned) [Example 349b] has what pIC50?
7.06

Reported pIC50 for CC1(NC(=O)O[C@H]2CC[C@@H](c3cc(Nc4ccc5c(c4F)CN(C4CC4)S5(=O)=O)n[nH]3)C2)CC1 (single isomer, unassigned) [Example 119b] : what is it?
6.94

What does the data say about its pIC50? Entry: CC(C)NC(=O)O[C@H]1CC[C@@H](c2cc(Nc3ccc4c(c3)S(=O)(=O)NC4=O)n[nH]2)C1 (relative stereo)
6.41

pIC50 lookup needed for CC1(NC(=O)O[C@H]2CC[C@@H](c3cc(Nc4ccc5c(c4F)CS(=O)(=O)N5)n[nH]3)C2)COC1 (relative stereo) , thanks.
6.93

Tell me the measured pIC50 of CC[C@H](C)NC(=O)O[C@H]1C[C@@H](c2cc(Nc3cc4c(cc3F)S(=O)(=O)NC4)n[nH]2)C1 , please.
6.05

Item under review: CC(C)CNC(=O)O[C@H]1CC[C@@H](c2cc(Nc3cc4c(cc3F)N(CCO)S(=O)(=O)C4)n[nH]2)C1 (relative stereo) . Reported pIC50?
6.78

Can you look up the measured pIC50 of CN1c2ccc(Nc3cc([C@@H]4CC[C@H](OC(=O)NC5(C)COC5)C4)[nH]n3)c(F)c2CS1(=O)=O (single isomer, unassigned) [Example 332b] for me?
6.80

State the recorded pIC50 for this entry: CC(C)NC(=O)O[C@H]1CC[C@@H](c2cc(Nc3ccc4c(c3)S(=O)(=O)NC4C)[nH]n2)C1 (single isomer, unassigned) [Example 5c]
7.02

Quick one: pIC50 of COCC(C)NC(=O)O[C@H]1CC[C@@H](c2cc(Nc3ccc4c(c3F)CS(=O)(=O)N4C)n[nH]2)C1 (relative stereo) ?
6.64

Where do the numbers come from? From patent US20260297080A1.
